- Procedure summary: Drug concentration in Wistar rat brain at 10 mg/kg, po after 48 hrs by LC-MS/MS analysis
- Assay type: ADME, organism-based
- Conditions: read-out: Drug uptake
Quantity measured: concentration at 48 h (µM)

# Smiles structure, Assay value
rows = [
    ("CCC(=O)c1sc(-c2ccc(Cl)cc2)c(C)c1-c1ccc(S(N)(=O)=O)cc1", 5.53),
]

---

- Procedure summary: Cmax in BALB/c mouse at 10 mg/kg, po after 0.25 to 144 hrs by LC-MS/MS analysis
- Type: ADME, organism-based
- Set-up: dose 10 mg/kg, route oral
- Conditions: in vivo
Quantity measured: Cmax

# Smiles structure, Quantity measured, Assay value
rows = [
    ("CCC(=O)c1sc(-c2ccc(Cl)cc2)c(C)c1-c1ccc(S(N)(=O)=O)cc1", "Cmax", "3.4 µM"),
]

---

- Procedure summary: Metabolic stability in rat liver microsomes assessed as compound remaining at 1 uM preincubated for 5 mins followed by NADPH addition and measured after 30 mins by LC-MS/MS analysis
- Assay type: ADME, Microsome
- Conditions: read-out: Stability
The reader will find reported remaining at 0.5 h, 1 µM values listed item by item below.
Quantity measured: remaining at 0.5 h, 1 µM (%)

# Smiles structure, Units of measure, Assay value
rows = [
    ("CCC(=O)c1sc(-c2ccc(Cl)cc2)c(C)c1-c1ccc(S(N)(=O)=O)cc1", "%", 94),
    ("CCC(=O)c1sc(-c2ccc(OC)cc2)c(C)c1-c1ccc(S(N)(=O)=O)cc1", "%", 97),
]

---

- Procedure summary: Ratio of AUCt in brain to plasma in Wistar rat at 10 mg/kg, po after 144 hrs by LC-MS/MS analysis
- Assay type: ADME, organism-based

# Smiles structure, Kp at 144 h
rows = [
    ("CCC(=O)c1sc(-c2ccc(Cl)cc2)c(C)c1-c1ccc(S(N)(=O)=O)cc1", 9),
]

---

- Procedure summary: Cmax in Wistar rat at 10 mg/kg, po after 0.25 to 144 hrs by LC-MS/MS analysis
- Assay type: ADME, organism-based
- Design: dose 10 mg/kg, route oral
- Conditions: in vivo

# Smiles structure, Units of measure, Cmax
data = [
    ("CCC(=O)c1sc(-c2ccc(Cl)cc2)c(C)c1-c1ccc(S(N)(=O)=O)cc1", "µM", 4.1),
    ("CCC(=O)c1sc(-c2ccc(OC)cc2)c(C)c1-c1ccc(S(N)(=O)=O)cc1", "µM", 3),
]

---

- Procedure summary: Drug concentration in Wistar rat plasma at 10 mg/kg, po after 24 hrs by LC-MS/MS analysis
- Format: ADME, organism-based

# Smiles structure, Units of measure, concentration at 24 h
records = [
    ("CCC(=O)c1sc(-c2ccc(Cl)cc2)c(C)c1-c1ccc(S(N)(=O)=O)cc1", "nM", 740),
]

---

- Procedure summary: Clearance in Wistar rat at 1 mg/kg, iv after 0.083 to 144 hrs by LC-MS/MS analysis
- Type: ADME, organism-based
- Conditions: Wistar, in vivo

# Smiles structure, Units of measure, clearance
measured = [
    ("CCC(=O)c1sc(-c2ccc(OC)cc2)c(C)c1-c1ccc(S(N)(=O)=O)cc1", "mL/min/kg", 31),
]

---

- Procedure summary: Tmax in Wistar rat plasma at 10 mg/kg, po after 1 to 144 hrs by LC-MS/MS analysis
- Format: ADME, organism-based

# Smiles structure, Tmax / h
data = [
    ("CCC(=O)c1sc(-c2ccc(Cl)cc2)c(C)c1-c1ccc(S(N)(=O)=O)cc1", 1),
]
